# Tested on: barnyardgrass (Echinochloa crus-galli)
# Assay: Test A postemergence
# Format: in vivo
# Study conditions: Echinochloa crus-galli, post-emergence, 240 h, 500 g ai/ha, postemergence; 0 to 100 scale, 0 is no effect, 100 is complete control; read-out: Barnyardgrass plant response rating
Experimental readout: pest or weed control at 500 g/ha

mol_smiles=Cc1cc([C@H]2CN(C)C(=O)[C@@H]2C(=O)Nc2cccc(F)c2F)ccc1Br reported_value=80%
mol_smiles=CN1C[C@H](c2ccc(F)c(Br)c2)[C@@H](C(=O)Nc2cccc(F)c2F)C1=O reported_value=90%
mol_smiles=CSc1ccccc1NC(=O)[C@H]1C(=O)NC[C@@H]1c1ccc(F)c(C#N)c1 reported_value=100%
mol_smiles=CSc1ccccc1NC(=O)[C@H]1C(=O)N(C)C[C@@H]1c1ccc(C(F)(F)F)nc1 reported_value=90%
mol_smiles=CN1CC[C@H](c2ccc(C(F)(F)F)cc2)[C@@H](C(=O)Nc2cccc(F)c2F)C1=O reported_value=90%
mol_smiles=CN1C[C@H](c2ccc(C#N)cc2)[C@@H](C(=O)Nc2cccc(F)c2F)C1=O reported_value=100%

Measured values drawn from patent US12077503B2 for this set.
